The reported numbers originate from patent US20170066759A1.

MEASURED_TARGET: human TRPV4 (hTRPV4/CHO cells) (Homo sapiens)
Construct: expressed in transfected cells; host or cells: CHO-K1
TEST_SUMMARY: Test Example 1: TRPV4 inhibitory activity (IC50 value), 4α-PDD stimulation, Fluo4 calcium fluorescence (FLIPR TETRA)
Type: cell-based
TEST_CONDITIONS: Test Example 1, 4α-PDD stimulation, read-out: Test 1 IC50
VALUE_KIND: IC50

COMPOUND: Cc1nc(C(F)F)sc1-c1csc(NC(=O)Cc2ccc(N(C)C)cc2)n1
MEAS_VALUE: 100 to 1000 nM

COMPOUND: O=C(Nc1nc(-c2sc(CO)nc2CO)cs1)[C@H]1C[C@@H](OCc2ccccc2)C1
MEAS_VALUE: 1000 to 8000 nM

COMPOUND: Cc1nc(C)c(-c2nc(NC(=O)Cc3c(F)cccc3F)sc2C(=O)Nc2cccc(Cl)c2)s1
MEAS_VALUE: 1000 to 8000 nM

COMPOUND: Cc1nc(C)c(-c2csc(NC(=O)C(C)C)n2)s1
MEAS_VALUE: 100 to 1000 nM

COMPOUND: Cc1nc(C)c(-c2csc(NC(=O)Cn3cc(C4CCCCC4)nn3)n2)s1
MEAS_VALUE: < 100 nM

COMPOUND: CCNCc1nc(CO)sc1-c1csc(NC(=O)Cc2ccc(S(=O)(=O)C(F)(F)F)cc2)n1
MEAS_VALUE: 100 to 1000 nM

COMPOUND: Cc1nc(C)c(-c2csc(NC(=O)C3CCC(F)(F)C3)n2)s1 (centres unmarked)
MEAS_VALUE: 100 to 1000 nM

COMPOUND: CNC(=O)c1nc(C)c(-c2csc(NC(=O)Cc3c(F)cccc3F)n2)s1
MEAS_VALUE: 1000 to 8000 nM

* * *

The following molecules are shown together with reported IC50 values.
MEASURED_TARGET: human TRPV4 (hTRPV4/CHO cells) (Homo sapiens, UniProt Q9HBA0)
Construct: expressed in transfected cells; host or cells: CHO-K1
Sequence (Q9HBA0 whole entry): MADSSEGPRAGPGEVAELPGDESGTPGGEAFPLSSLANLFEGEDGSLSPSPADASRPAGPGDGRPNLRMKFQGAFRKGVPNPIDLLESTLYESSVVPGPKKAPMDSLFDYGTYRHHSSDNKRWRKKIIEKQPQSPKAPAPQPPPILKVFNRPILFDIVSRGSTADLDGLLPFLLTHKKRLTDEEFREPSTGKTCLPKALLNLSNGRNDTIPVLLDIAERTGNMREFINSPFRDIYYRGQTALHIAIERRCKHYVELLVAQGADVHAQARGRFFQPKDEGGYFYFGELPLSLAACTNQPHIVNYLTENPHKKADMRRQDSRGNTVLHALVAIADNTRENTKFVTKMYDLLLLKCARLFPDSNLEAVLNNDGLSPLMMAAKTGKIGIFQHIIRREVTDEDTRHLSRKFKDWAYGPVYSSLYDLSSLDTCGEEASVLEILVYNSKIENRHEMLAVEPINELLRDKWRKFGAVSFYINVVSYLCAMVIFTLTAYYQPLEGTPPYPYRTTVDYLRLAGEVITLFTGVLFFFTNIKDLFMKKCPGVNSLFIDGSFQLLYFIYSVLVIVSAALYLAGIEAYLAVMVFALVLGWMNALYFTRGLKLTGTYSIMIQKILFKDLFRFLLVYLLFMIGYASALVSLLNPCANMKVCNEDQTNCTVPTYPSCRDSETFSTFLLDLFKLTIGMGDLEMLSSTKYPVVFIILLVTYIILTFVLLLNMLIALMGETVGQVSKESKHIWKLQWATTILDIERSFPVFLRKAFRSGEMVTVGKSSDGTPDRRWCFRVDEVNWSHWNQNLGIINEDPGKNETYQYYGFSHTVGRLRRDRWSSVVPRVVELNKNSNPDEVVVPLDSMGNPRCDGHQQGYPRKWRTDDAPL
TEST_SUMMARY: Test Example 1: TRPV4 inhibitory activity (IC50 value), 4α-PDD stimulation, Fluo4 calcium fluorescence (FLIPR TETRA)
Type: cell-based
TEST_CONDITIONS: Test Example 1, 4α-PDD stimulation, read-out: Test 1 IC50

MOL: Cc1nc(C)c(-c2csc(NCC3Cc4ccccc4C3)n2)s1
IC50: < 100 nM
//
MOL: Cc1nc(C)c(-c2csc(NC(=O)Cc3ccc(S(=O)(=O)N(C)c4ccc(C#N)cc4)cc3)n2)s1
IC50: < 100 nM
//
MOL: Cc1nc(C)c(-c2csc(NC(=O)Cn3cc(Cl)cn3)n2)o1
IC50: 1000 to 8000 nM
//
MOL: Cc1nc(C)c(-c2csc(NC(=O)C3CCN(S(=O)(=O)c4ccc(F)cc4)CC3)n2)s1
IC50: 100 to 1000 nM
//
MOL: Cc1nc(CO)sc1-c1csc(NC(=O)C2CN(S(=O)(=O)CCC(F)(F)F)C2)n1
IC50: 100 to 1000 nM
//
MOL: Cc1nc(C)c(-c2csc(NC(=O)C3CN(C(=O)c4ccc(C(F)(F)F)cc4)C3)n2)s1
IC50: 100 to 1000 nM
//
MOL: Cc1nc(C)c(-c2csc(NC(=O)CN3CCN(c4ccccc4)CC3)n2)s1
IC50: 100 to 1000 nM
//
MOL: Cc1nc(CO)sc1-c1csc(NC(=O)[C@H]2C[C@@H](OCc3ccc(Cl)cc3)C2)n1
IC50: < 100 nM
//
MOL: O=C(Nc1nc(-c2sc(CO)nc2CO)cs1)C1CN(c2ccc(F)cc2)C1
IC50: 100 to 1000 nM
//
MOL: CC(=O)N1C[C@H](Oc2ccccc2)C[C@H]1C(=O)Nc1nc(-c2sc(C)nc2C)cs1
IC50: 1000 to 8000 nM
//
MOL: Cc1nc(C)c(-c2csc(NC(=O)[C@@H]3CCCN3C(=O)OC(C)(C)C)n2)s1
IC50: 100 to 1000 nM
//
MOL: Cc1nc(C)c(-c2csc(NC(=O)Cn3cc(-c4cncnc4)cn3)n2)s1
IC50: 1000 to 8000 nM
//
MOL: CCOC(=O)N1C[C@H](c2ccccc2)C[C@H]1C(=O)Nc1nc(-c2sc(CO)nc2C)cs1
IC50: < 100 nM
//
MOL: Cc1nc(CO)sc1-c1csc(NC(=O)CCc2ccc(Cl)cc2)n1
IC50: < 100 nM
//
MOL: Cc1nc(C)c(-c2csc(NC(=O)Cn3cc(C4(O)CCCCC4)nn3)n2)s1
IC50: 1000 to 8000 nM
//
MOL: Cc1nc(C)c(-c2nc(NC(=O)Cc3c(F)cccc3F)sc2-c2ccsc2)s1
IC50: 1000 to 8000 nM
